System: smooth muscle cells
test-summary: Smooth muscle cell (SMC) migration test
Type: cell-based, humans or rats
condition-info: horizontal migration on vitronectin-coated plates, 24 hours; human or rat cells not specified
Description: b) Smooth Muscle Cell (SMC) Migration Test Smooth muscle cells from humans or rats were used. The migration of the cells was determined in a horizontal measuring arrangement (Falcon). The horizontal migration was determined in 6-well plates coated with vitronectin (1 μg/cm^2). The cells were suspended in a medium (DMEM:F12/0, 12% BSA-rat smooth muscle cells or MCDB 131 with 0.2% BSA-human smooth muscle cells), inoculated and allowed to grow to confluence. […]
endpoint-name: IC50

Prompt: Can you share its IC50? I mean this molecule: CC1(C)[C@@H]2CC[C@@]1(CS(=O)(=O)N[C@@H](Cc1ccc(-c3cccc(NC(=O)Nc4cccnc4)c3)cc1)C(=O)O)C(=O)C2
Completion: 3 to 40 nM

====

endpoint-name: melting point (°C)
Field format: number, assumed °C, no unit text.

Known melting point results, listed for orientation:
# compound, melting point [°C]
measured = [
    ("Cc1cc(C)c(S(=O)(=O)NC(Cc2cccc(-c3cccc(NC(=O)NC4CC4)c3)c2)C(=O)O)c(C)c1 (centres unmarked)", 214),
    ("Cc1cc(C)c(S(=O)(=O)N[C@@H](Cc2ccc(-c3cccc(NC(=O)Nc4nc5cc(Cl)ccc5o4)c3)cc2)C(=O)O)c(C)c1", 220),
    ("COc1ccc(-c2ccc(NC(=O)NCCc3ccccn3)cc2)cc1S(=O)(=O)NC(CC(=O)O)c1ccccc1 (centres unmarked)", 137),
    ("C[C@@H](NS(=O)(=O)c1cccc(-c2cccc(NC(=O)Nc3ccncc3)c2)c1)C(=O)O", 169),
    ("Cc1cc(C)c(S(=O)(=O)NC(Cc2cccc(-c3ccc(NC(=O)Nc4ccncc4)cc3)c2)C(=O)O)c(C)c1 (centres unmarked)", 188),
]

Prompt: For the compound O=C(Nc1cccc(-c2ccc(C[C@H](NS(=O)(=O)CCCC(F)(F)F)C(=O)O)cc2)c1)NC1CC1 , what melting point is on record?
Completion: 202

Prompt: Can you look up the measured melting point of CC1(C)C2CC[C@@]1(CS(=O)(=O)N[C@@H](Cc1ccc(-c3ccc(NC(=O)Nc4ccncc4)cc3)cc1)C(=O)O)C(=O)C2 for me?
Completion: 207

Prompt: Would you mind telling me what melting point value was observed for CCCNC(=O)Nc1ccc(-c2cccc(CC(NS(=O)(=O)c3c(C)cc(C)cc3C)C(=O)O)c2)cc1 (centres unmarked) ?
Completion: 119

Prompt: Which value of melting point has been reported for COc1ccc(-c2cccc(NC(=O)c3ccc[nH]3)c2)cc1S(=O)(=O)NC(CC(=O)O)c1ccccc1 (centres unmarked) in the records?
Completion: 234

Prompt: Report melting point for CCCNC(=O)Nc1cccc(-c2cccc(S(=O)(=O)N(C)CC(=O)O)c2)c1 please.
Completion: 90

====

endpoint-name: melting point

# cpd-smiles, melting point
data = [
    ("CC1(C)[C@H]2CCC1(CS(=O)(=O)N[C@@H](Cc1ccc(-c3cccc(N/C(=C/[N+](=O)[O-])NC4CCC4)c3)cc1)C(=O)O)C(=O)C2", "151 °C (dec.)"),
    ("O=C(NCc1ccccc1)Nc1cccc(-c2ccc(C[C@H](NS(=O)(=O)CCCC(F)(F)F)C(=O)O)cc2)c1", "163 °C"),
]

Consider the additional molecule presented here.
Prompt: Look at this molecule and give its reported melting point. CCS(=O)(=O)N[C@@H](Cc1ccc(-c2cccc(CNc3ccccn3)c2)cc1)C(=O)O
Completion: > 240 °C
